Assay: PSAC antagonists in infected red cells, primary screen, cell-based, P. falciparum Indochina, OD700, 2 h (AID 1155);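 note: lysis reports solute entry through the parasite surface anion channel PSAC; channel blockers reduce lysis of infected cells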
Conditions: P. falciparum Indochina infected erythrocytes, osmotic lysis OD700; higher = more signal, called active from +8 up or from −8 down
Calls of active or inactive are those of the source.
value type: z-score

compound | z-score
COCCCNC(=O)[C@@]1(c2ccc([N+](=O)[O-])cc2)CC(=O)N(C2CCCCC2)[C@@H]1c1ccc(CO)cc1 | 0.349 (inactive)
C[C@H]1C2[C@H](Cc3ccccc3)NC(=O)[C@]23C(=O)N[C@H](Cc2ccccc2)C(=O)N[C@@H](Cc2ccccc2)C(=O)NC/C=C\C/C=C/C3[C@@H]2O[C@]12C (some centres not stated) | 0.358 (inactive)
CCCC[C@H]1OB(O)C[C@H]2C1=C(COC)C[C@H]1C(=O)N(Cc3ccccc3)C(=O)[C@H]12 | -1.1 (inactive)
O=C(NCC(F)(F)F)[C@@H]1c2ccccc2C(=O)N(Cc2ccccc2Cl)[C@H]1c1ccc(CO)cc1 | 0.839 (inactive)

Problem: Look up z-score: C=CCC(OC(C)=O)[C@@H]1[C@@H](N(Cc2cccc3ccccc23)C(=O)c2ccc(C)cc2)c2cc(OCCCO)ccc2N1C(=O)c1ccc(-c2ccccc2)cc1 (some centres not stated)
Result: -1.33 (inactive)

Problem: Look up z-score for this compound: CC(C)[Si]1(C(C)C)OCc2cc(C3CC3)nc(-c3ccccc3)c21
Result: 0.201 (inactive)

* * *

Experiment: small-molecule binders of probe aNOTCH2, primary screen, biochemical, small-molecule microarray, 635/667 nm fluorescence (AID 1121);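 note: score merges feature fluorescence read at 667 nm with its signal to noise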
Details: higher = more signal
value type: composite z-score
Response field accepts a number only; no unit should be typed.

molecule | composite z-score
C[C@@H]1NC(=O)[C@H](Cc2ccccc2)NC(=O)[C@@]23C(=O)N[C@@H](Cc4ccccc4)C2[C@H](C)[C@@]2(C)O[C@H]2C3/C=C/C/C=C\CNC1=O (stereo not given in full) | 0.364
O=C(NCC(O)CO)[C@]1(Cc2ccccc2)N=C(c2ccc(OCCCO)cc2)O[C@@H]1c1ccccc1 (stereo not given in full) | 0.257
O=C1O[C@@H](c2ccccc2)[C@@H](c2ccccc2)N2[C@@H](c3ccccc3OCCO)[C@]3(C(=O)Nc4ccc(C#CC5=CCCCC5)cc43)[C@@H](C(=O)O)[C@H]12 | -0.0391

Problem: What composite z-score value was documented for this molecule, O=C(NCc1ccccc1)c1ccc(Br)cc1[N+](=O)[O-] ?
Result: -0.0488

Problem: Query (molecule): O=C1NC(=O)C2C1C=CC(C(O)C=Cc1ccc([N+](=O)[O-])cc1)N2Nc1ccccn1 (stereo not given) ; field requested: composite z-score
Result: 0.0337

* * *

Assay: modulators of HCV replicon luciferase signal, primary screen, HCV replication inhibitor project, Huh7 cells, luciferase reporter (AID 1109);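 note: huh7 hepatoma cells harbouring a luciferase neomycin HCV replicon reporter; luciferase luminescence as measure of HCV replicon replication; test concentration not given here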
Settings: 48 h, higher = more signal
value type: z-score
Output: the number by itself.

Problem: // z-score lookup, key: O=C1O[C@H](c2ccccc2)[C@H](c2ccccc2)N2[C@H]1[C@@H](C(=O)NC[C@H](O)c1ccccc1)[C@]1(C(=O)Nc3ccc(C#CC4=CCCCC4)cc31)[C@H]2c1ccc(OCCO)cc1
Result: -1.91

Problem: Bench note: what z-score did COCCOC(=O)N1C(=O)[C@@]2(c3cc(C#CCCO)ccc31)[C@H](c1ccc(OCCO)cc1)N1[C@H](c3ccccc3)[C@H](c3ccccc3)OC(=O)[C@H]1[C@@H]2C(=O)NC[C@H](O)c1ccccc1 show?
Result: -1.13

Problem: // lookup z-score for COc1ccc(-c2ccccc2[C@@H]2N[C@H](C(=O)O)CC[C@H]2C)cc1
Result: -0.388

Problem: Which z-score value belongs to C#C[C@H](O[Si](C#Cc1ccccc1)(C(C)C)C(C)C)c1ccccc1 ?
Result: -0.733

* * *

Target: E3 ubiquitin-protein ligase XIAP (Homo sapiens)
Assay: XIAP binders, primary screen, biophysical, small-molecule microarray, fluorescence 635 nm (AID 1181);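 note: score merges 667 nm emission and signal to noise over triplicate slides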
Details: small-molecule microarray binding, higher = more signal
value type: composite z-score

Study these solved cases before continuing.
molecule | reported
CC(C)[Si]1(C(C)C)O[C@@H](c2ccccc2)c2cc(C3CC3)nc(-c3ccc(Oc4ccccc4)cc3)c21 | -0.267
O=C1OCC=C[C@H]2OC34C=CCN(Cc5ccccc5)C(=O)[C@H]3N(CCO)C(=O)[C@@H]4[C@@H]12 (some centres undefined) | -0.16
CC(C)N1CC=CC23O[C@@H]4/C=C\CCCOC(=O)C4[C@H]2C(=O)N(CCO)[C@@H]3C1=O (some centres undefined) | -0.16
C=C(CCCC)/C(=C/C[C@@H](OC(=O)c1ccncc1)c1cccc(OCCO)c1)c1cc(C(=O)OC)ccc1OC | 0.137

Problem: Please report the recorded composite z-score for C[C@]1(C(=O)NCc2ccccc2)c2ccccc2C(=O)N(Cc2cc(C(F)(F)F)cc(C(F)(F)F)c2)[C@H]1c1ccc(CO)cc1 .
Result: -0.177

Problem: Report composite z-score for C=CCC(OC(C)=O)[C@@H]1[C@@H](N(Cc2ccc(-c3ccccc3)cc2)C(=O)c2ccc(-c3ccccc3)cc2)c2cc(OCCCO)ccc2N1C(=O)Cc1ccc(OC)cc1 (some centres undefined) please.
Result: -0.0596

Problem: Query: composite z-score; subject: Cc1ccc(S(=O)(=O)N2[C@@H](c3ccccc3)C(C(=O)O)=CC[C@H]2c2ccccc2)cc1
Result: 0.261

Problem: # get_value(readout='composite z-score', item= CO[C@H]1O[C@H](CO)[C@@H](OC(=O)Nc2ccc(Oc3ccccc3)cc2)[C@H](OC(=O)Nc2ccccc2-c2ccccc2)[C@H]1OC(=O)Nc1ccccc1-c1ccccc1 )
Result: 0.344

Problem: Endpoint output: composite z-score of C=CC[C@]1(C(=O)O)N=C(c2ccc(OCCCO)cc2)O[C@H]1c1ccccc1 . Value?
Result: 0.109

Problem: Fill blank: measured composite z-score of the molecule O=C1C2C=CC(C(O)c3ccccc3)N(n3cnnc3)C2C(=O)N1Cc1ccccc1 (centres undefined) is ____.
Result: 0.23

* * *

Target: Torsin-1A (Homo sapiens) (UniProt O14656)
Sequence (O14656 whole entry, looked up): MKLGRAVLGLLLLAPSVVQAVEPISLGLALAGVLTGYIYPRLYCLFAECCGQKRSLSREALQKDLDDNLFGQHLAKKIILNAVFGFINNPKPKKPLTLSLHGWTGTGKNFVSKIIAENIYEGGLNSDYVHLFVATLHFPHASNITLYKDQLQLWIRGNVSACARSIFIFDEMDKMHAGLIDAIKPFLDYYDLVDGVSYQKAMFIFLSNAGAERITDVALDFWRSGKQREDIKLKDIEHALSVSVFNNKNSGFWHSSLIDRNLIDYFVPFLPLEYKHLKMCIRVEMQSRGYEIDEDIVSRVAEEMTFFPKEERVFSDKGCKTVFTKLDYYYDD
Experiment: small-molecule binders of mutant TOR1A in lysate, primary screen, cell lysate, small-molecule microarray, COS7 lysate, 635/667 nm fluorescence (AID 1150);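 note: score pools 667 nm emission and signal to noise measuring lysate protein binding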
Conditions: COS7 hTOR1A mutant lysate, 635 nm fluorescence, higher = more signal
compounds and their reported composite z-score

compound | reported
CO[C@H]1COC(=O)[C@H](C)NC(=O)CC=C[C@@H](C)[C@H](NS(=O)(=O)c2ccc(C)cc2)COC(=O)CC=C[C@@H]1C | 0.0627
CCCC[C@@H]1C[C@H]1[C@@H](NC(=O)c1cccs1)c1ccc(Cl)cc1 | -1.01
CCC1=C2CN(Cc3ccccc3Br)[C@@H]([C@@H](O)Cc3ccccc3)C2C=CCC1 (stereo partly drawn) | 0.212
CCCC/C=C/[C@H]([C@@H](O)Cc1ccccc1)N(CC#Cc1ccccc1)Cc1ccccc1Br | -0.242
CO[C@H]1COC(=O)CC=C[C@@H](C)COC(=O)[C@@H](C)NC(=O)CC=C[C@@H]1C | 0.711

Problem: GET /values?readout=composite z-score&item= O=C1c2ccccc2[C@](Cc2ccccc2I)(C(=O)O)[C@H](c2ccc(CO)cc2)N1C1CCCCC1
Result: 0.76

Problem: Endpoint output: composite z-score of CCN1C(C)=C(C(=O)OC)[C@@H](c2ccccc2)N2C(=O)[C@](O)(C(=O)OC)[C@@H](c3ccccc3)C(C(C)=O)=C12 . Value?
Result: 0.355

Problem: What does the data say about its composite z-score? Entry: C=CC[C@@]1(C(=O)NCC(O)CO)N=C(c2ccc(OCCCO)cc2)O[C@@H]1c1ccccc1CN=[N+]=[N-] (stereo partly drawn)
Result: 2.13

* * *

Assay: binders of probe aHhip on microarray, primary screen, stem cell growth factor project, biochemical, small-molecule microarray, fluorescence 635/667 (AID 1087);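 note: score merges spot fluorescence at 667nm with spot signal to noise ratio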
Conditions: higher = more signal
value type: composite z-score

compound | reported
O=C1O[C@H](c2ccccc2)[C@H](c2ccccc2)N2[C@H]1[C@@H](C(=O)Nc1nc3ccccc3s1)[C@]1(C(=O)Nc3ccc(C#CC4=CCCCC4)cc31)[C@H]2c1ccccc1OCCO | -0.0726
NC(=O)NCC#Cc1ccc2c(c1)[C@]1(C(=O)N2)[C@H](c2ccccc2OCCO)N2[C@H](c3ccccc3)[C@H](c3ccccc3)OC(=O)[C@H]2[C@@H]1C(=O)N1CCN(c2ncccn2)CC1 | -0.0994
COc1cccc([C@H]2N[C@H](C(=O)O)CC[C@@H]2C)c1 | -0.127
CC(=O)NCCCC[C@@H]1NC(=O)[C@@H]2C[C@H](C(=O)NCc3ccc(F)cc3)[C@H](c3cccc(OCCO)c3)N2C1=O | -0.0237
COc1ccc([Si](C)(C)[C@@H]2[C@@H](CC(=O)N(CCO)Cc3ccccc3)O[C@]3(C(=O)N(Cc4cccc(N5CCC5=O)c4)c4ccccc43)[C@H]2C)cc1 | 0.0373

Problem: Could you tell me which composite z-score is on file for COC(=O)C1=CC(c2ccc(CO)cc2)=CC(C2CC2)N(Cc2sc3ccccc3c2Cl)C=C1C(=O)OC (configuration not stated) ?
Result: 0.065

Problem: Look up composite z-score: O=C1C2C=CC(C(O)Cc3ccccc3)N(Nc3ccc([N+](=O)[O-])cc3)C2C(=O)N1c1ccccc1 (configuration not stated)
Result: 0.413

Problem: Fill in the blank: the reported composite z-score of CCN1C(C)=C(C(=O)OC)[C@@H](c2ccccc2)N2C(=O)[C@@]3(C(=O)OC)O[C@@]12[C@@H]1C(=O)N(C)C(=O)[C@@H]13 is ____.
Result: -0.0994

Problem: Quick check: composite z-score of C=C(COC)/C(=C/C[C@H](OC(C)=O)c1ccc(OCCO)cc1)c1cnc2ccccc2c1 ?
Result: 0.176

Problem: I am curious: what composite z-score value has been reported for C=CCOC(=O)[C@@H]1[C@H]2C(=O)O[C@H](c3ccccc3)[C@H](c3ccccc3)N2[C@H](c2ccc(OCCOC(=O)[C@H]3C[C@H]4C(=O)N[C@@H](CCCCNC(C)=O)C(=O)N4[C@H]3c3ccc(O)cc3)cc2)[C@@]12C(=O)Nc1ccc(I)cc12 ?
Result: 0.158

Problem: So what's the measured composite z-score for this one? C=C(CCCC)C(=O)CC[C@@H](OC(=O)c1cccnc1)c1cccc(OCCO)c1
Result: -0.0645

Problem: I am curious: what composite z-score value has been reported for CCOC(=O)[C@H]1C/C=C/C[C@H](C(=O)OCC)C(=O)O[C@H]2[C@@H](OC)O[C@H](CO)[C@@H](OC(=O)Nc3ccc(Br)cc3)[C@@H]2OC1=O ?
Result: -0.0613

Problem: Using the record for C=C(CCCC)/C(=C/C[C@@H](OC(=O)c1ccncc1)c1ccc(CO)o1)c1cnc2ccccc2c1 , report its composite z-score.
Result: 0.224

Problem: Using the record for C=C(CCCC)/C(=C/C[C@@H](OC(=O)c1ccncc1)c1cccc(OCCO)c1)c1cc(C(=O)OC)ccc1OC , report its composite z-score.
Result: 0.0722

Problem: Give its composite z-score value. Item: CCC(=O)[C@]12O[C@@]3([C@@H]4C(=O)OCC[C@@H]41)N(Cc1ccccc1)C(C)=C(C(=O)OC)[C@@H](c1ccccc1)N3C2=O
Result: -0.134

Problem: GET /values?readout=composite z-score&item= C=C[C@H](OC)[C@@H](OC(=O)Nc1ccc(SC)cc1)c1ccc(O)c(F)c1
Result: 0.109

Problem: Name the recorded composite z-score for O=C(CS)NCCCCCNC(=O)[C@H]1C[C@H]2C(=O)N3CCC[C@H]3C(=O)N2[C@H]1c1ccc(O)cc1 .
Result: 0.0274

Problem: Value lookup for composite z-score; key = [N-]=[N+]=NCc1ccccc1C[C@@]1(C(=O)N2CCOCC2)N=C(c2ccc(OCCCO)cc2)O[C@@H]1c1ccccc1N=[N+]=[N-]
Result: -0.146

Problem: Which composite z-score value is on record for COc1cc([C@@H]2N[C@H](C(=O)O)Cc3c2[nH]c2ccccc32)cc(OC)c1OC ?
Result: 0.338

Problem: Sample C=C(COC)C(=O)CC[C@H](OC(=O)c1ccccc1-c1ccccc1C(=O)O)c1cccc(OCCO)c1 — what was its composite z-score?
Result: -0.0296

Problem: Reported composite z-score, compound C=CCC(OC(C)=O)[C@@H]1[C@@H](N(Cc2ccc(-c3ccccc3)cc2)C(=O)c2ccc(C)cc2)c2cc(OCCCO)ccc2N1C(=O)c1ccc(-c2ccccc2)cc1 (some centres not stated) : ____
Result: -0.405

Problem: Please look up its composite z-score: COc1cc2c(cc1OC)CN(C(=O)[C@H]1[C@@H]3C(=O)O[C@@H](c4ccccc4)[C@@H](c4ccccc4)N3[C@@H](c3ccc(O)cc3)[C@]13C(=O)Nc1ccc(C#CC4(O)CCCCCC4)cc13)CC2
Result: 2.29
